Form field: MIC (one value per entry).
# Test system: Fusarium graminearum
# assayText: Antifungal activity against Fusarium graminearum B4-5A incubated for 24 to 36 hrs by two fold dilution method
# Format: functional
resultType: MIC (µg/mL)

>  <smilesRepr>
CCCCCCCCSC[C@H]1O[C@H](O[C@@H]2[C@@H](O)[C@H](O[C@H]3O[C@H](CN)[C@@H](O)[C@H](O)[C@H]3O)[C@@H](N)C[C@H]2N)[C@H](O)[C@@H](N)[C@@H]1O.Cl.Cl.Cl.Cl

>  <unitString>
µg/mL

>  <reported>
128

$$$$
>  <smilesRepr>
CCCCCCCCCCNC[C@H]1O[C@H](O[C@@H]2[C@@H](O)[C@H](O[C@H]3O[C@H](CN)[C@@H](O)[C@H](O)[C@H]3O)[C@@H](N)C[C@H]2N)[C@H](O)[C@@H](N)[C@@H]1O.Cl.Cl.Cl.Cl.Cl

>  <unitString>
µg/mL

>  <reported>
32

$$$$
>  <smilesRepr>
CCCCCCCCCCCCCCCCSC[C@H]1O[C@H](O[C@@H]2[C@@H](O)[C@H](O[C@H]3O[C@H](CN)[C@@H](O)[C@H](O)[C@H]3O)[C@@H](N)C[C@H]2N)[C@H](O)[C@@H](N)[C@@H]1O.Cl.Cl.Cl.Cl

>  <unitString>
µg/mL

>  <reported>
2

$$$$

---

# Test system: Fusarium graminearum
# assayText: Antifungal activity against Fusarium graminearum B4-5A incubated for 24 to 36 hrs by two fold dilution method
# Assay type: functional

>  <smilesRepr>
CCCCCCCCNC[C@H]1O[C@H](O[C@@H]2[C@@H](O)[C@H](O[C@H]3O[C@H](CN)[C@@H](O)[C@H](O)[C@H]3O)[C@@H](N)C[C@H]2N)[C@H](O)[C@@H](N)[C@@H]1O.Cl.Cl.Cl.Cl.Cl

>  <targetEntity>
Fusarium graminearum

>  <MIC (µg/mL)>
32

$$$$
>  <smilesRepr>
CCCCCCNC[C@H]1O[C@H](O[C@@H]2[C@@H](O)[C@H](O[C@H]3O[C@H](CN)[C@@H](O)[C@H](O)[C@H]3O)[C@@H](N)C[C@H]2N)[C@H](O)[C@@H](N)[C@@H]1O.Cl.Cl.Cl.Cl.Cl

>  <targetEntity>
Fusarium graminearum

>  <MIC (µg/mL)>
64

$$$$
>  <smilesRepr>
CCCCCCCCCCCCCCCCNC[C@H]1O[C@H](O[C@@H]2[C@@H](O)[C@H](O[C@H]3O[C@H](CN)[C@@H](O)[C@H](O)[C@H]3O)[C@@H](N)C[C@H]2N)[C@H](O)[C@@H](N)[C@@H]1O.Cl.Cl.Cl.Cl.Cl

>  <targetEntity>
Fusarium graminearum

>  <MIC (µg/mL)>
2

$$$$
>  <smilesRepr>
CCCCCCCCCCCCNC[C@H]1O[C@H](O[C@@H]2[C@@H](O)[C@H](O[C@H]3O[C@H](CN)[C@@H](O)[C@H](O)[C@H]3O)[C@@H](N)C[C@H]2N)[C@H](O)[C@@H](N)[C@@H]1O.Cl.Cl.Cl.Cl.Cl

>  <targetEntity>
Fusarium graminearum

>  <MIC (µg/mL)>
2

$$$$

---

# System: Fusarium graminearum
# assayText: Antifungal activity against Fusarium graminearum B4-5A incubated for 24 to 36 hrs by two fold dilution method
# Format: functional

>  <smilesRepr>
CCCCCCCCCCSC[C@H]1O[C@H](O[C@@H]2[C@@H](O)[C@H](O[C@H]3O[C@H](CN)[C@@H](O)[C@H](O)[C@H]3O)[C@@H](N)C[C@H]2N)[C@H](O)[C@@H](N)[C@@H]1O.Cl.Cl.Cl.Cl

>  <unitString>
µg/mL

>  <MIC>
32

$$$$
>  <smilesRepr>
Cl.Cl.Cl.Cl.NC[C@H]1O[C@H](O[C@H]2[C@H](O)[C@@H](O[C@H]3O[C@H](CNC(=O)c4ccccc4-c4c5ccc(=O)cc-5oc5cc(O)ccc45)[C@@H](O)[C@H](N)[C@H]3O)[C@H](N)C[C@@H]2N)[C@H](O)[C@@H](O)[C@@H]1O

>  <unitString>
µg/mL

>  <MIC>
32

$$$$

---

Form field: MIC (one value per entry).
# Test system: Candida albicans
# assayText: Antifungal activity against Candida albicans B-311 incubated for 24 to 36 hrs by two fold dilution method
# Assay type: functional
resultType: MIC (µg/mL)

>  <smilesRepr>
CCCCCCCCCCCCCCSC[C@H]1O[C@H](O[C@@H]2[C@@H](O)[C@H](O[C@H]3O[C@H](CN)[C@@H](O)[C@H](O)[C@H]3O)[C@@H](N)C[C@H]2N)[C@H](O)[C@@H](N)[C@@H]1O.Cl.Cl.Cl.Cl

>  <targetEntity>
Candida albicans

>  <reported>
8

$$$$
>  <smilesRepr>
CCCCCCCCCCCCCCCCNC[C@H]1O[C@H](O[C@@H]2[C@@H](O)[C@H](O[C@H]3O[C@H](CN)[C@@H](O)[C@H](O)[C@H]3O)[C@@H](N)C[C@H]2N)[C@H](O)[C@@H](N)[C@@H]1O.Cl.Cl.Cl.Cl.Cl

>  <targetEntity>
Candida albicans

>  <reported>
4

$$$$
>  <smilesRepr>
CCCCCCCCCCCCSC[C@H]1O[C@H](O[C@@H]2[C@@H](O)[C@H](O[C@H]3O[C@H](CN)[C@@H](O)[C@H](O)[C@H]3O)[C@@H](N)C[C@H]2N)[C@H](O)[C@@H](N)[C@@H]1O.Cl.Cl.Cl.Cl

>  <targetEntity>
Candida albicans

>  <reported>
32

$$$$
>  <smilesRepr>
CCCCCCCCS(=O)(=O)OC[C@H]1O[C@H](O[C@@H]2[C@@H](O)[C@H](O[C@H]3O[C@H](CN)[C@@H](O)[C@H](O)[C@H]3O)[C@@H](N)C[C@H]2N)[C@H](O)[C@@H](N)[C@@H]1O

>  <targetEntity>
Candida albicans

>  <reported>
16

$$$$

---

# System: Candida albicans
# assayText: Antifungal activity against Candida albicans B-311 incubated for 24 to 36 hrs by two fold dilution method
# Format: functional
Form field: MIC (one value per entry).
resultType: MIC (µg/mL)

>  <smilesRepr>
CCCCCCCCCCSC[C@H]1O[C@H](O[C@@H]2[C@@H](O)[C@H](O[C@H]3O[C@H](CN)[C@@H](O)[C@H](O)[C@H]3O)[C@@H](N)C[C@H]2N)[C@H](O)[C@@H](N)[C@@H]1O.Cl.Cl.Cl.Cl

>  <resultType>
MIC

>  <resultModifier>
=

>  <reported>
128

$$$$
>  <smilesRepr>
CCCCCCCCSC[C@H]1O[C@H](O[C@@H]2[C@@H](O)[C@H](O[C@H]3O[C@H](CN)[C@@H](O)[C@H](O)[C@H]3O)[C@@H](N)C[C@H]2N)[C@H](O)[C@@H](N)[C@@H]1O.Cl.Cl.Cl.Cl

>  <resultType>
MIC

>  <resultModifier>
>

>  <reported>
256

$$$$
>  <smilesRepr>
CCCCCCCCCCCCCCCCSC[C@H]1O[C@H](O[C@@H]2[C@@H](O)[C@H](O[C@H]3O[C@H](CN)[C@@H](O)[C@H](O)[C@H]3O)[C@@H](N)C[C@H]2N)[C@H](O)[C@@H](N)[C@@H]1O.Cl.Cl.Cl.Cl

>  <resultType>
MIC

>  <resultModifier>
=

>  <reported>
4

$$$$
>  <smilesRepr>
CCCCCCCCCCCCNC[C@H]1O[C@H](O[C@@H]2[C@@H](O)[C@H](O[C@H]3O[C@H](CN)[C@@H](O)[C@H](O)[C@H]3O)[C@@H](N)C[C@H]2N)[C@H](O)[C@@H](N)[C@@H]1O.Cl.Cl.Cl.Cl.Cl

>  <resultType>
MIC

>  <resultModifier>
=

>  <reported>
32

$$$$

---

# Tested on: Candida albicans
# assayText: Antifungal activity against Candida albicans B-311 incubated for 24 to 36 hrs by two fold dilution method
# Format: functional
resultType: MIC

>  <smilesRepr>
CCCCCCNC[C@H]1O[C@H](O[C@@H]2[C@@H](O)[C@H](O[C@H]3O[C@H](CN)[C@@H](O)[C@H](O)[C@H]3O)[C@@H](N)C[C@H]2N)[C@H](O)[C@@H](N)[C@@H]1O.Cl.Cl.Cl.Cl.Cl

>  <resultType>
MIC

>  <reported>
> 256 µg/mL

$$$$
>  <smilesRepr>
CCCCCCCCCCNC[C@H]1O[C@H](O[C@@H]2[C@@H](O)[C@H](O[C@H]3O[C@H](CN)[C@@H](O)[C@H](O)[C@H]3O)[C@@H](N)C[C@H]2N)[C@H](O)[C@@H](N)[C@@H]1O.Cl.Cl.Cl.Cl.Cl

>  <resultType>
MIC

>  <reported>
256 µg/mL

$$$$
>  <smilesRepr>
CCCCCCCCNC[C@H]1O[C@H](O[C@@H]2[C@@H](O)[C@H](O[C@H]3O[C@H](CN)[C@@H](O)[C@H](O)[C@H]3O)[C@@H](N)C[C@H]2N)[C@H](O)[C@@H](N)[C@@H]1O.Cl.Cl.Cl.Cl.Cl

>  <resultType>
MIC

>  <reported>
> 256 µg/mL

$$$$
>  <smilesRepr>
CCCCCCSC[C@H]1O[C@H](O[C@@H]2[C@@H](O)[C@H](O[C@H]3O[C@H](CN)[C@@H](O)[C@H](O)[C@H]3O)[C@@H](N)C[C@H]2N)[C@H](O)[C@@H](N)[C@@H]1O.Cl.Cl.Cl.Cl

>  <resultType>
MIC

>  <reported>
> 256 µg/mL

$$$$
